Biological target: human IL-21R expressed on cells (human, UniProt Q9HBE5 20-538)
Sequence (Q9HBE5 20-538 limits assumed): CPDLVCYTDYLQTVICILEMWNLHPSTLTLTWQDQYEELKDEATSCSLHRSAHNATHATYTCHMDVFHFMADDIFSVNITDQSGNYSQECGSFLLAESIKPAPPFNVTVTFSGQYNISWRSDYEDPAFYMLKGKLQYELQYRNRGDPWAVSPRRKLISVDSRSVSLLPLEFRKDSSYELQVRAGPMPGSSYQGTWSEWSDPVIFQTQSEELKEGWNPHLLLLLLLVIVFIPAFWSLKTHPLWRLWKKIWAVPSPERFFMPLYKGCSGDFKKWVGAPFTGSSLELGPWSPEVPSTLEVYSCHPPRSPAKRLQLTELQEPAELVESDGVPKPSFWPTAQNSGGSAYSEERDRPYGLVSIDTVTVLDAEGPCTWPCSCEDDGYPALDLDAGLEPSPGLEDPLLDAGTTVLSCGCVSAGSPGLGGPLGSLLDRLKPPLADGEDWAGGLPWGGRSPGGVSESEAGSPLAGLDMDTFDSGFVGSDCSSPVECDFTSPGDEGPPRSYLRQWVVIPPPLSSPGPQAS
Test: cell-based or functional assay
Reported values of IC50, Human IL-21R-TF1 Neutralization Assay for individual entries

# example entries with known answers
[[record]]
binder = "scFv L1 (scFv) scFv: QVQLQESGPGLVKTSETLSLTCAVSGYSISSGYYWGWIRQPPGKGLEWIGSISHTGNTYYNPPLKSRVTISVDTSKNQFSLKLSSVTAADTAVYYCARGGGISRPEYWGKGTLVTVSSGGGGSGGGGSGGGGSALSSELTQDPPVSVALGQTVTLTCQGDSLRTYYASWYQQKSGQAPILLLYGKHKRPSGIPDRFSGSTSGDTASLTITGAQAEDEADYYCASRSVSGNPHVLFGGGTQLTVL"
meas_value = "~55 nM"

[[record]]
binder = "scFv L3 (scFv) scFv: QVQLQESGPGLVKTSETLSLTCAVSGYSISSGYYWGWIRQPPGKGLEWIGSISHTGNTYYNPPLKSRVTISVDTSKNQFSLKLSSVTAADTAVYYCARGGGISRPEYWGKGTLVTVSSGGGGSGGGGSGGGGSALSSELTQDPPVSVALGQTVTLTCQGDSLRTYYASWYQQKSGQAPILLLYGKHKRPSGIPDRFSGSTSGDTASLTITGAQAEDEADYYCVSRAVVGNPHVLFGGGTQLTVL"
meas_value = "~7 nM"


Then there is this binder:
// IC50, Human IL-21R-TF1 Neutralization Assay lookup, key: scFv H6 (scFv) scFv: QVQLQESGPGLVKTSETLSLTCAVSGYSISSGYYWGWIRQPPGKGLEWIGSISHTGNTYYNPPLKSRVTISVDTSKNQFSLKLSSVTAADTAVYYCARFFGFGRPEYWGKGTLVTVSSGGGGSGGGGSGGGGSALSSELTQDPPVSVALGQTVTLTCQGDSLRTYYASWYQQKSGQAPILLLYGKHKRPSGIPDRFSGSTSGDTASLTITGAQAEDEADYYCNSRDSSGNPHVLFGGGTQLTVL ~150 nM
